Biological target: Human recombinant cyclophilin A (CypA) (Homo sapiens)
Construct: purchased Sigma C3805
Sequence (P62937 whole entry): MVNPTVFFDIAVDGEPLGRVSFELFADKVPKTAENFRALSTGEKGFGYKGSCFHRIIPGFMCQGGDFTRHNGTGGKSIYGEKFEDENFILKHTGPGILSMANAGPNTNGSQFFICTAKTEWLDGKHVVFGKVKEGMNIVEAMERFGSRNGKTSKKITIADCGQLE
Experiment: Protease-free PPIase assay, cyclophilin A
Type: biochemical
Conditions: human recombinant CypA, 10 °C, SUC-AAPF-pNA substrate; read-out: CypA Protease-free PPIase Assay Ki
Method: Protease-Free PPIase Assay The protease-free PPIase assay measures the rate of cis to trans conversion of a peptide substrate catalyzed by the enzyme cyclophilin A or D. Addition of a cyclophilin inhibitor (e.g., a test compound) slows the catalyzed rate and a Ki value is obtained. […] All readings were taken with an Agilent 8453 Spectrophotometer which consisted of a cuvette holder, stirrer and chiller to maintain a stirred cuvette temperature of 10.0±0.1° C. […]
pKi: −log10 of the molar value. Starred links: 1 amine or outer side, 2 acyl side, 3 side chain; linkers in the order of their positions; H or OH if unused. Non-standard residues stand in square brackets, D forms with d. Residues, ends and D or L forms follow the SMILES beside them. X2 = C[C@@H]1CC(O)O[C@H]1[C@H](C(=O)[*:2])N(C)[*:1]; NMeL = CN[C@@H](CC(C)C)C(=O)O; dNMeL = CN[C@H](CC(C)C)C(=O)O; dNMeV = CN[C@@H](C(=O)O)C(C)C; dNMeA = CN[C@H](C)C(=O)O
Known pKi of a selection of compounds

# COMPOUND, pKi
records = [
    ("CC(C)C[C@@H]1C(=O)N(C)[C@H](CC(C)C)C(=O)N(C)[C@H](C(C)C)C(=O)N(C)[C@H]([C@@H]2OC(O)C[C@H]2C)C(=O)N[C@H](C(C)C)C(=O)N(C)[C@H](C)C(=O)N(C)[C@@H](CC(C)C)C(=O)N[C@H](C(C)C)C(=O)N(C)[C@H](CC(C)C)C(=O)N[C@H](C)C(=O)N[C@@H](C)C(=O)N1C (stereo partly drawn) [Compound 14] (cyclo(A[dNMeL][dNMeL][dNMeV][X2][dV][dNMeA][NMeL][dV][dNMeL][dA]))", 7.69),
    ("CC[C@H]1NC(=O)[C@@H]([C@@H]2OCC[C@H]2C)N(C)C(=O)[C@@H](C(C)C)N(C)C(=O)[C@@H](CC(C)C)N(C)C(=O)[C@@H](CC(C)C)N(C)C(=O)[C@H](C)NC(=O)[C@@H](C)NC(=O)[C@@H](CC(C)C)N(C)C(=O)[C@@H](C(C)C)NC(=O)[C@H](CC(C)C)N(C)C(=O)[C@@H](C)N(C)C1=O", 7.02),
    ("CC[C@H]1NC(=O)[C@@H]([C@@H]2OCN(C)C[C@H]2C)N(C)C(=O)[C@@H](C(C)C)N(C)C(=O)[C@@H](CC(C)C)N(C)C(=O)[C@@H](CC(C)C)N(C)C(=O)[C@H](C)NC(=O)[C@@H](C)NC(=O)[C@@H](CC(C)C)N(C)C(=O)[C@@H](C(C)C)NC(=O)[C@H](CC(C)C)N(C)C(=O)CN(C)C1=O", 6.12),
    ("CC[C@H]1NC(=O)[C@H]([C@@H]2[C@H](C)CCN2C)N(C)C(=O)[C@@H](C(C)C)N(C)C(=O)[C@@H](CC(C)C)N(C)C(=O)[C@@H](CC(C)C)N(C)C(=O)[C@H](C)NC(=O)[C@@H](C)NC(=O)[C@@H](CC(C)C)N(C)C(=O)[C@@H](C(C)C)NC(=O)[C@H](CC(C)C)N(C)C(=O)[C@@H](C)N(C)C1=O", 6.39),
    ("CC(C)C[C@@H]1C(=O)N(C)[C@H](CC(C)C)C(=O)N(C)[C@H](C(C)C)C(=O)N(C)[C@H]([C@@H]2OCC[C@H]2C)C(=O)N[C@H](C(C)C)C(=O)N(C)CC(=O)N(C)[C@@H](CC(C)C)C(=O)N[C@H](C(C)C)C(=O)N(C)[C@H](CC(C)C)C(=O)N[C@H](C)C(=O)N[C@@H](C)C(=O)N1C", 6.40),
    ("CC[C@H]1NC(=O)[C@@H]([C@@H]2OCCCC[C@H]2C)N(C)C(=O)[C@@H](C(C)C)N(C)C(=O)[C@@H](CC(C)C)N(C)C(=O)[C@@H](CC(C)C)N(C)C(=O)[C@H](C)NC(=O)[C@@H](C)NC(=O)[C@@H](CC(C)C)N(C)C(=O)[C@@H](C(C)C)NC(=O)[C@H](CC(C)C)N(C)C(=O)[C@@H](C)N(C)C1=O", 6.98),
]

---

molecular target: calcineurin (Homo sapiens, UniProt P62937+P63098+Q08209); construct: purchased Enzo Life Sciences BML-AK804; assay: Calcineurin Phosphatase (CaN) Assay; assay type: biochemical; settings: in the presence of CypA, 1:1 complex of inhibitor with CypA
pIC50: −log10 of the molar value. Starred links: 1 amine or outer side, 2 acyl side, 3 side chain; linkers in the order of their positions; H or OH if unused. Non-standard residues stand in square brackets, D forms with d. Residues, ends and D or L forms follow the SMILES beside them. X2 = C[C@@H]1CC(O)O[C@H]1[C@H](C(=O)[*:2])N(C)[*:1]; NMeL = CN[C@@H](CC(C)C)C(=O)O; dNMeL = CN[C@H](CC(C)C)C(=O)O; dNMeV = CN[C@@H](C(=O)O)C(C)C; dNMeA = CN[C@H](C)C(=O)O

# COMPOUND, pIC50
data = [
    ("CC[C@H]1NC(=O)[C@@H]([C@@H]2OCC[C@H]2C)N(C)C(=O)[C@@H](C(C)C)N(C)C(=O)[C@@H](CC(C)C)N(C)C(=O)[C@@H](CC(C)C)N(C)C(=O)[C@H](C)NC(=O)[C@@H](C)NC(=O)[C@@H](CC(C)C)N(C)C(=O)[C@@H](C(C)C)NC(=O)[C@H](CC(C)C)N(C)C(=O)[C@@H](C(F)F)N(C)C1=O", "< 5.00"),
    ("CC[C@H]1NC(=O)[C@H]([C@H]2NCC[C@H]2C)N(C)C(=O)[C@@H](C(C)C)N(C)C(=O)[C@@H](CC(C)C)N(C)C(=O)[C@@H](CC(C)C)N(C)C(=O)[C@H](C)NC(=O)[C@@H](C)NC(=O)[C@@H](CC(C)C)N(C)C(=O)[C@@H](C(C)C)NC(=O)[C@H](CC(C)C)N(C)C(=O)[C@@H](C)N(C)C1=O", "< 5.00"),
    ("CC(C)C[C@@H]1C(=O)N(C)[C@H](CC(C)C)C(=O)N(C)[C@H](C(C)C)C(=O)N(C)[C@H]([C@@H]2OCC[C@H]2C)C(=O)N[C@H]([C@@H](C)O)C(=O)N(C)CC(=O)N(C)[C@@H](CC(C)C)C(=O)N[C@H](C(C)C)C(=O)N(C)[C@H](CC(C)C)C(=O)N[C@H](C)C(=O)N[C@@H](C)C(=O)N1C", "< 5.00"),
    ("CC[C@H]1NC(=O)[C@H]([C@@H]2[C@H](C)CCN2C)N(C)C(=O)[C@@H](C(C)C)N(C)C(=O)[C@@H](CC(C)C)N(C)C(=O)[C@@H](CC(C)C)N(C)C(=O)[C@H](C)NC(=O)[C@@H](C)NC(=O)[C@@H](CC(C)C)N(C)C(=O)[C@@H](C(C)C)NC(=O)[C@H](CC(C)C)N(C)C(=O)[C@@H](C)N(C)C1=O", 5.05),
    ("CC[C@H]1NC(=O)[C@@H](C2OC(C)C[C@H]2C)N(C)C(=O)[C@@H](C(C)C)N(C)C(=O)[C@@H](CC(C)C)N(C)C(=O)[C@@H](CC(C)C)N(C)C(=O)[C@H](C)NC(=O)[C@@H](C)NC(=O)[C@@H](CC(C)C)N(C)C(=O)[C@@H](C(C)C)NC(=O)[C@H](CC(C)C)N(C)C(=O)[C@@H](C)N(C)C1=O (stereo partly shown)", "< 5.00"),
    ("CC[C@@H]1C(=O)N(C)[C@@H](CC(C)C)C(=O)N[C@H](C(C)C)C(=O)N(C)[C@H](CC(C)C)C(=O)N[C@H](C)C(=O)N[C@@H](C)C(=O)N(C)[C@H](CC(C)C)C(=O)N(C)[C@H](CC(C)C)C(=O)N(C)[C@H](C(C)C)C(=O)N(C)[C@H]([C@@H]2OCC[C@H]2C)C(=O)N[C@H](CC)C(=O)N1C", "< 5.00"),
    ("CC(C)C[C@@H]1C(=O)N(C)[C@H](CC(C)C)C(=O)N(C)[C@H](C(C)C)C(=O)N(C)[C@H]([C@@H]2OC(O)C[C@H]2C)C(=O)N[C@H](C(C)C)C(=O)N(C)[C@H](C)C(=O)N(C)[C@@H](CC(C)C)C(=O)N[C@H](C(C)C)C(=O)N(C)[C@H](CC(C)C)C(=O)N[C@H](C)C(=O)N[C@@H](C)C(=O)N1C (stereo partly shown) [Compound 14] (cyclo(A[dNMeL][dNMeL][dNMeV][X2][dV][dNMeA][NMeL][dV][dNMeL][dA]))", "< 5.00"),
    ("CC[C@H]1NC(=O)[C@@H]([C@@H]2OCCC[C@H]2C)N(C)C(=O)[C@@H](C(C)C)N(C)C(=O)[C@@H](CC(C)C)N(C)C(=O)[C@@H](CC(C)C)N(C)C(=O)[C@H](C)NC(=O)[C@@H](C)NC(=O)[C@@H](CC(C)C)N(C)C(=O)[C@@H](C(C)C)NC(=O)[C@H](CC(C)C)N(C)C(=O)[C@@H](C)N(C)C1=O", 5.28),
    ("CC[C@H]1NC(=O)[C@@H]([C@@H]2OCC[C@H]2C)N(C)C(=O)[C@@H](C(C)C)N(C)C(=O)[C@@H](CC(C)C)N(C)C(=O)[C@@H](CC(C)C)N(C)C(=O)[C@H](C)NC(=O)[C@@H](C)NC(=O)[C@@H](CC(C)C)N(C)C(=O)[C@@H](C(C)C)NC(=O)[C@H](CC(C)C)N(C)C(=O)[C@@H](C)N(C)C1=O", "< 5.00"),
    ("CC[C@H]1NC(=O)[C@@H]([C@@H]2OC(O)C[C@H]2C)N(C)C(=O)[C@@H](C(C)C)N(C)C(=O)[C@@H](CC(C)C)N(C)C(=O)[C@@H](CC(C)C)N(C)C(=O)[C@H](C)NC(=O)[C@@H](C)NC(=O)[C@@H](CC(C)C)N(C)C(=O)[C@@H](C(C)C)NC(=O)[C@H](CC(C)C)N(C)C(=O)[C@@H](C)N(C)C1=O (stereo partly shown)", "< 5.00"),
    ("CC[C@H]1NC(=O)[C@@H]([C@@H]2OC(=O)N(C)C[C@H]2C)N(C)C(=O)[C@@H](C(C)C)N(C)C(=O)[C@@H](CC(C)C)N(C)C(=O)[C@@H](CC(C)C)N(C)C(=O)[C@H](C)NC(=O)[C@@H](C)NC(=O)[C@@H](CC(C)C)N(C)C(=O)[C@@H](C(C)C)NC(=O)[C@H](CC(C)C)N(C)C(=O)[C@@H](C)N(C)C1=O", "< 5.00"),
    ("CC(C)C[C@@H]1C(=O)N(C)[C@H](CC(C)C)C(=O)N(C)[C@H](C(C)C)C(=O)N(C)[C@H]([C@@H]2OCC[C@H]2C)C(=O)N[C@H](C(C)C)C(=O)N(C)CC(=O)N(C)[C@@H](CC(C)C)C(=O)N[C@H](C(C)C)C(=O)N(C)[C@H](CC(C)C)C(=O)N[C@H](C)C(=O)N[C@@H](C)C(=O)N1C", "< 5.00"),
    ("CC[C@H]1NC(=O)[C@H]([C@H]2OCC[C@H]2C)N(C)C(=O)[C@@H](C(C)C)N(C)C(=O)[C@@H](CC(C)C)N(C)C(=O)[C@@H](CC(C)C)N(C)C(=O)[C@H](C)NC(=O)[C@@H](C)NC(=O)[C@@H](CC(C)C)N(C)C(=O)[C@@H](C(C)C)NC(=O)[C@H](CC(C)C)N(C)C(=O)[C@@H](C)N(C)C1=O", "< 5.00"),
]

Entry source: patent US9914755B2
